Provide the reported pEC50 of each item.
Target: human RXFP1 (Homo sapiens, UniProt Q9HBX9)
Construct: expressed in transfected cells
Sequence (Q9HBX9 1-757): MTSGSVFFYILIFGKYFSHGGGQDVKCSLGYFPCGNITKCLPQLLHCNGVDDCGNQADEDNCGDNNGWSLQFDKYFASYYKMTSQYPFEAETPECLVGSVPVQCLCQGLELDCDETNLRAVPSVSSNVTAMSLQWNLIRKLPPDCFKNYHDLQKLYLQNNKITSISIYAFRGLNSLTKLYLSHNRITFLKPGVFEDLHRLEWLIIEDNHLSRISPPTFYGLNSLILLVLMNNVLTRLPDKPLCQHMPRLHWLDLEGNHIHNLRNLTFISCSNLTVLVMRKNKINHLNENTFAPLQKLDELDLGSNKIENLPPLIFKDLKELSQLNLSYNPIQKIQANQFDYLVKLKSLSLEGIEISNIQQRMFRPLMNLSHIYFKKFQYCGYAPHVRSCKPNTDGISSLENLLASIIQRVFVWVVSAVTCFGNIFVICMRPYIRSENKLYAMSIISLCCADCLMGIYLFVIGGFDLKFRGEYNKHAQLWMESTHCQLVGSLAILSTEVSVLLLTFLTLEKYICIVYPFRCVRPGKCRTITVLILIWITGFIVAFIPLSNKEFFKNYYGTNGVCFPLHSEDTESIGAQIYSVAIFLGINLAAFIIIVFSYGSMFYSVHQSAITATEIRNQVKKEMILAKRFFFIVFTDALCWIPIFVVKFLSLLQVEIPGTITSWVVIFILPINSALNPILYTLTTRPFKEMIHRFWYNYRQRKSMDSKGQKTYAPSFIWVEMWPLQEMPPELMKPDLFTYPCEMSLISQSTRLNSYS
Assay: hRXFP1 HEK293 cAMP assay (HTRF)
Assay type: cell-based
Settings: HEK293 cells stably expressing human RXFP1, 30 min at room temperature
Description: RXFP1 Cyclic Adenosine Monophosphate (cAMP) Assays. […] Cells were dissociated and suspended in assay buffer. The assay buffer was HBSS buffer (with calcium and magnesium) containing 20 mM HEPES, 0.05% BSA, and 0.5 mM IBMX. […] The level of intracellular cAMP was determined using the HTRF HiRange cAMP assay reagent kit (Cisbio) according to manufacturer's instructions. […]
Numbers only, as −log10 of the molar value.

Compound	Value
COC(=O)C1CC2(C1)CC(c1ccc(OC)c(C(=O)N[C@@H]3C4CCC(/C4=C/C(F)(F)F)[C@@H]3C(=O)Nc3ccc(F)c(C(F)(F)F)c3)c1)C2 (single isomer, unassigned) [Example 149]	6.07

For the 4 compounds below, give their pEC50 values.
1. COc1ccc(/C(=C/CO)C(F)(F)F)cc1C(=O)N[C@H]1[C@@H](C(=O)Nc2ccc(F)c(C(F)(F)F)c2)[C@H]2CC[C@@H]1/C2=C\C1CC1
2. COc1ccc(S(=O)(=O)N2CCN[C@@H](CO)C2)cc1C(=O)NC1C2CCC(/C2=C/C(F)(F)F)[C@@H]1C(=O)Nc1ccc(F)c(C(F)(F)F)c1 (stereo partly shown)
3. COc1ccc(C2CC3CC(O)CC32)cc1C(=O)N[C@H]1[C@@H](C(=O)Nc2ccc(F)c(C(F)(F)F)c2)[C@H]2CC[C@@H]1/C2=C\C1CC1 (single isomer, unassigned) [Example 343]
4. COc1ccc(CCCNC(=O)C2CCOCC2)cc1C(=O)N[C@@H]1C2CCC(/C2=C/C(F)(F)F)[C@@H]1C(=O)Nc1ccc(F)c(C(F)(F)F)c1 (stereo partly shown)

[6.55, 6.47, 7.12, 6.27]

For the 5 compounds below, give their pEC50 values.
1. COc1ccc(C(=O)N(C)C(C)(C)C)cc1C(=O)N[C@H]1[C@@H](C(=O)Nc2ccc(F)c(C(F)(F)F)c2)[C@H]2CC[C@@H]1/C2=C\C1CC1
2. COc1ccc(CCCCC(F)(F)F)cc1C(=O)NC1C2CCC(/C2=C/C(F)(F)F)[C@@H]1C(=O)Nc1ccc(F)c(C(F)(F)F)c1 (stereo partly shown)
3. COc1ccc(C2CC2C(=O)N2CCC(O)CC2)cc1C(=O)N[C@H]1[C@@H](C(=O)Nc2ccc(F)c(C(F)(F)F)c2)[C@H]2CC[C@@H]1/C2=C\C(F)(F)F (single isomer, unassigned) [Example 322]
4. COc1ccc(/C=C/C(=O)N2CCO[C@@H](CO)C2)cc1C(=O)N[C@H]1[C@@H](C(=O)Nc2ccc(F)c(C(F)(F)F)c2)[C@H]2CC[C@@H]1/C2=C\C(F)(F)F
5. COc1ccc(COc2c(F)cccc2C(OC(=O)Nc2ccccc2)C(F)(F)F)cc1C(=O)N[C@H]1[C@@H](C(=O)Nc2ccc(F)c(C(F)(F)F)c2)[C@H]2CC[C@@H]1/C2=C\C1CC1 (stereo partly shown)

1: 7.16; 2: 6.55; 3: 6.48; 4: 7.06; 5: 8.96

The measurements presented in this section are drawn from patent US20250268903A1.
